The origin of these recorded values is patent US10738028B2.

Known Anti-bacterial activity (MIC), strain EFA 15-6 of a selection of compounds
# System: Enterococcus faecalis (EFA)
# Assay Remarks: MIC, two-fold agar dilution (CLSI), clinical isolates
# Assay type: cell-based
# Conditions Used: clinical isolate EFA 15-6
Assay Readout: Anti-bacterial activity (MIC), strain EFA 15-6

* CCCC[C@H](CC(=O)NO)C(=O)N1CC2(CC2)C[C@H]1C(=O)Nc1ncco1 [Example 53] | > 32 µg/mL
* CCCC[C@H](CC(=O)NO)C(=O)N1CC2(CC2)C[C@H]1C(=O)Nc1ccc(N2CCOCC2)cc1 [Example 43] | > 32 µg/mL
* CCCC[C@H](CC(=O)NO)C(=O)N1CC2(CC2)C[C@H]1C(=O)Nc1cc(C)on1 [Example 56] | 16 µg/mL
* CCCC[C@H](CC(=O)NO)C(=O)N1CC2(CC2)C[C@H]1C(=O)Nc1cc(C(C)(C)C)on1 [Example 55] | > 32 µg/mL

---

# Test system: Escherichia coli (including ESBLs, non-ESBLs)
# Assay Remarks: MIC, two-fold agar dilution (CLSI), clinical isolates
# Format: cell-based
# Conditions Used: clinical isolate ECO+ 15-1
Parameter: log10(Anti-bacterial activity (MIC), strain ECO+ 15-1). Scope: all listed entries.
Assay Readout: log10(Anti-bacterial activity (MIC), strain ECO+ 15-1) (log10 of the value in µg/mL)

- O=C(C[C@@H](CC1CCCC1)C(=O)N1CC2(CC2)C[C@H]1C(=O)Nc1nccs1)NO: 1.20
- O=C(C[C@@H](CC1CCCC1)C(=O)N1CC2(CC2)C[C@H]1C(=O)Nc1ccc(F)cn1)NO: 1.20
- CCCC[C@H](CC(=O)NO)C(=O)N1CC2(CC2)C[C@H]1C(=O)Nc1ccc(N2CCOCC2)cc1: 0.00
- O=C(C[C@@H](CC1CCCC1)C(=O)N1CC2(CC2)C[C@H]1C(=O)Nc1cnccn1)NO: -0.30
- CCCC[C@H](CC(=O)NO)C(=O)N1CC2(CC2)C[C@H]1C(=O)Nc1ncc(C)s1: 1.51
- Cc1cnc(NC(=O)[C@@H]2CC3(CC3)CN2C(=O)[C@@H](CC(=O)NO)CC2CCCC2)s1: 0.90

---

# Test system: HCT-116 colorectal cancer cell line
# Assay Remarks: CCK-8 proliferation inhibition
# Type: cell-based
# Conditions Used: Homo sapiens, HCT-116; 72 hours; CCK-8
pIC50: −log10 of the molar value.
Examples of compounds with documented pIC50 follow.
Assay Readout: pIC50

* Cc1cnc(NC(=O)[C@@H]2CC3(CC3)CN2C(=O)[C@H](CC2CCCC2)CN(O)C=O)s1 | 5.05
* CCCC[C@H](CC(=O)NO)C(=O)N1CC2(CC2)C[C@H]1C(=O)Nc1cc(C(C)(C)C)on1 | 4.82
* O=C(C[C@@H](CC1CCCC1)C(=O)N1CC2(CC2)C[C@H]1C(=O)Nc1nc(C(F)(F)F)cs1)NO | 5.21
* O=C(C[C@@H](CC1CCCC1)C(=O)N1CC2(CC2)C[C@@H]1c1nc2ccccc2[nH]1)NO | 4.97
* O=C(C[C@@H](CC1CCCC1)C(=O)N1CC2(CC2)C[C@H]1C(=O)Nc1ccc(F)cn1)NO | 5.31

---

We begin with a simple list: items and their reported MIC (anti-bacterial activity).
# Test system: methicillin-sensitive Staphylococcus aureus (MSSA)
# Assay Remarks: MIC, two-fold agar dilution (CLSI), clinical isolates
# Format: cell-based
# Conditions Used: strain MSSA 15-4
Assay Readout: MIC (anti-bacterial activity)

• CCCC[C@H](CN(O)C=O)C(=O)N1CC2(CC2)C[C@H]1C(=O)Nc1ccno1 = 1 µg/mL
• CCCC[C@H](CN(O)C=O)C(=O)N1CC2(CC2)C[C@H]1C(=O)Nc1nccs1 = 0.06 µg/mL
• CCCC[C@H](CN(O)C=O)C(=O)N1CC2(CC2)C[C@H]1C(=O)Nc1cnccn1 = 0.125 µg/mL
• O=CN(O)C[C@@H](CC1CCCC1)C(=O)N1CC2(CC2)C[C@H]1C(=O)Nc1cnccn1 = 0.25 µg/mL
